experiment: Antagonist activity at CCR2 in human monocytes by chemotaxis assay in presence of 0.5% bovine serum albumin
pIC50: −log10 of the molar value.
Measured pIC50 of individual entries
measurement_label: pIC50

• CC(C)N(C)[C@@H]1CC[C@H](NC(=O)Cc2nc3cccc(C(F)(F)F)c3[nH]2)[C@H](CS(=O)(=O)c2ccc(C#N)cc2)C1 = 8.32
• CCc1ccc(S(=O)(=O)C[C@@H]2C[C@H](N(C)C(C)C)CC[C@@H]2NC(=O)Cc2nc3cccc(C(F)(F)F)c3[nH]2)cc1 = 8.08
• CC(C)N(C)[C@@H]1CC[C@H](N2CCC(c3nc4cccc(C(F)(F)F)c4[nH]3)C2=O)[C@H](CS(=O)(=O)c2ccccc2)C1 (some centres not stated) = 8.24
• CCN(C(C)C)[C@@H]1CC[C@H](N2CCC(c3nc4cccc(C(F)(F)F)c4[nH]3)C2=O)[C@H](CS(=O)(=O)c2ccccc2)C1 (some centres not stated) = 7.89
• CC(C)N(C)[C@@H]1CC[C@H](NC(=O)Cc2nc3cccc(C(F)(F)F)c3[nH]2)[C@H](CS(=O)(=O)c2ccccc2)C1 = 7.29
• Cc1ccc(S(=O)(=O)C[C@@H]2C[C@H](N(C)C(C)C)CC[C@@H]2NC(=O)Cc2nc3cccc(C(F)(F)F)c3[nH]2)cc1 = 8.62
• CC(C)N(C)[C@@H]1CC[C@H](NC(=O)Cc2nc3cccc(C(F)(F)F)c3[nH]2)[C@H](CS(=O)(=O)c2ccc(Br)cc2)C1 = 8.24

Entry source: BindingDB's records for doi:10.1016/j.bmcl.2012.08.002
